system: Histophilus somni; test: minimum inhibitory concentration (MIC); conditions: isolate (source animal id): 292
quantity_measured: minimum inhibitory concentration

[
  {
    "compound": "COc1cc(NS(=O)(=O)c2ccc(N)cc2)nc(OC)n1 [sulfadimethoxine]",
    "target_system": "Histophilus somni",
    "quantity_measured": "minimum inhibitory concentration",
    "recorded_value": "> 256 µg/mL"
  },
  {
    "compound": "COc1cc(Cc2cnc(N)nc2N)cc(OC)c1OC.Cc1cc(NS(=O)(=O)c2ccc(N)cc2)no1 [trimethoprim-sulfamethoxazole]",
    "target_system": "Histophilus somni",
    "quantity_measured": "minimum inhibitory concentration",
    "recorded_value": "≤ 2 µg/mL"
  },
  {
    "compound": "CNC(C)C1CCC(N)C(OC2C(N)CC(N)C(OC3OCC(C)(O)C(NC)C3O)C2O)O1 (stereo unspecified) [Gentamicin]",
    "target_system": "Histophilus somni",
    "quantity_measured": "minimum inhibitory concentration",
    "recorded_value": "16 µg/mL"
  },
  {
    "compound": "CC[C@H]1OC(=O)C[C@@H](O)[C@H](C)[C@@H](O[C@@H]2O[C@H](C)[C@@H](O)[C@H](N(C)C)[C@H]2O)[C@@H](CCN2CCCCC2)C[C@@H](C)C(=O)/C=C/C(C)=C/[C@@H]1CN1CCCCC1 [Tildipirosin]",
    "target_system": "Histophilus somni",
    "quantity_measured": "minimum inhibitory concentration",
    "recorded_value": "4 µg/mL"
  },
  {
    "compound": "CCCNC[C@]1(O)[C@H](C)O[C@@H](O[C@H]2[C@H](C)[C@@H](O[C@@H]3O[C@H](C)C[C@H](N(C)C)[C@H]3O)[C@](C)(O)C[C@@H](C)CN[C@H](C)[C@@H](O)[C@](C)(O)[C@@H](CC)OC(=O)[C@@H]2C)C[C@@]1(C)OC [Tulathromycin]",
    "target_system": "Histophilus somni",
    "quantity_measured": "minimum inhibitory concentration",
    "recorded_value": "≤ 8 µg/mL"
  },
  {
    "compound": "CCN1CCN(c2cc3c(cc2F)c(=O)c(C(=O)O)cn3C2CC2)CC1 [Enrofloxacin]",
    "target_system": "Histophilus somni",
    "quantity_measured": "minimum inhibitory concentration",
    "recorded_value": "≤ 0.12 µg/mL"
  }
]

###

Known minimum inhibitory concentration of a selection of molecules
test system: Escherichia coli; assay: minimum inhibitory concentration (MIC); settings: isolate (source animal id): 175
quantity_measured: minimum inhibitory concentration (µg/mL)

[
  {
    "molecule": "CCN1CCN(c2cc3c(cc2F)c(=O)c(C(=O)O)cn3C2CC2)CC1 [Enrofloxacin]",
    "result_modifier": "≤",
    "recorded_value": 0.12
  },
  {
    "molecule": "CCC[C@@H]1C[C@@H](C(=O)N[C@@H]([C@H]2O[C@H](SC)[C@H](O)[C@@H](O)[C@H]2O)[C@H](C)Cl)N(C)C1 [Clindamycin]",
    "result_modifier": ">",
    "recorded_value": 16
  },
  {
    "molecule": "COc1cc(NS(=O)(=O)c2ccc(N)cc2)nc(OC)n1 [sulfadimethoxine]",
    "result_modifier": ">",
    "recorded_value": 256
  },
  {
    "molecule": "CC[C@H]1OC(=O)C[C@@H](O)[C@H](C)[C@@H](O[C@@H]2O[C@H](C)[C@@H](O)[C@H](N(C)C)[C@H]2O)[C@@H](CCN2CCCCC2)C[C@@H](C)C(=O)/C=C/C(C)=C/[C@@H]1CN1CCCCC1 [Tildipirosin]",
    "result_modifier": "=",
    "recorded_value": 8
  },
  {
    "molecule": "CCCNC[C@]1(O)[C@H](C)O[C@@H](O[C@H]2[C@H](C)[C@@H](O[C@@H]3O[C@H](C)C[C@H](N(C)C)[C@H]3O)[C@](C)(O)C[C@@H](C)CN[C@H](C)[C@@H](O)[C@](C)(O)[C@@H](CC)OC(=O)[C@@H]2C)C[C@@]1(C)OC [Tulathromycin]",
    "result_modifier": "=",
    "recorded_value": 16
  }
]

###

Known minimum inhibitory concentration of a selection of compounds
tested on: Mannheimia haemolytica; assay: minimum inhibitory concentration (MIC); details: isolate (source animal id): 237

[
  {
    "sample_smiles": "CN(C)[C@@H]1C(O)=C(C(N)=O)C(=O)[C@@]2(O)C(O)=C3C(=O)c4c(O)cccc4[C@@](C)(O)[C@H]3C[C@@H]12",
    "result_modifier": "≤",
    "minimum inhibitory concentration [µg/mL]": 0.5
  },
  {
    "sample_smiles": "NC[C@@H]1O[C@H](O[C@H]2[C@@H](O)[C@H](O[C@@H]3[C@@H](O)[C@H](N)C[C@H](N)[C@H]3O[C@H]3O[C@H](CN)[C@@H](O)[C@H](O)[C@H]3N)O[C@@H]2CO)[C@H](N)[C@@H](O)[C@@H]1O",
    "result_modifier": "=",
    "minimum inhibitory concentration [µg/mL]": 8
  },
  {
    "sample_smiles": "CC[C@H]1OC(=O)C[C@@H](O)[C@H](C)[C@@H](O[C@@H]2O[C@H](C)[C@@H](O)[C@H](N(C)C)[C@H]2O)[C@@H](CCN2CCCCC2)C[C@@H](C)C(=O)/C=C/C(C)=C/[C@@H]1CN1CCCCC1",
    "result_modifier": "=",
    "minimum inhibitory concentration [µg/mL]": 16
  },
  {
    "sample_smiles": "CCC[C@@H]1C[C@@H](C(=O)N[C@@H]([C@H]2O[C@H](SC)[C@H](O)[C@@H](O)[C@H]2O)[C@H](C)Cl)N(C)C1",
    "result_modifier": "=",
    "minimum inhibitory concentration [µg/mL]": 16
  }
]

###

tested on: Pasteurella multocida; experiment: minimum inhibitory concentration (MIC); conditions: isolate (source animal id): 261

[
  {
    "molecule": "CCN1CCN(c2cc3c(cc2F)c(=O)c(C(=O)O)cn3C2CC2)CC1 [Enrofloxacin]",
    "target_system": "Pasteurella multocida",
    "minimum inhibitory concentration": "2 µg/mL"
  },
  {
    "molecule": "CC[C@H]1OC(=O)C[C@@H](O)[C@H](C)[C@@H](O[C@@H]2O[C@H](C)[C@@H](O)[C@H](N(C)C)[C@H]2O)[C@@H](CCN2C[C@H](C)C[C@H](C)C2)C[C@@H](C)C(=O)/C=C/C(C)=C/[C@@H]1CO[C@@H]1O[C@H](C)[C@@H](O)[C@@H](OC)[C@H]1OC [Tilmicosin]",
    "target_system": "Pasteurella multocida",
    "minimum inhibitory concentration": "> 16 µg/mL"
  },
  {
    "molecule": "CN(C)[C@@H]1C(O)=C(C(N)=O)C(=O)[C@@]2(O)C(O)=C3C(=O)c4c(O)cccc4[C@@](C)(O)[C@H]3C[C@@H]12 [Tetracycline]",
    "target_system": "Pasteurella multocida",
    "minimum inhibitory concentration": "> 8 µg/mL"
  },
  {
    "molecule": "CCC[C@@H]1C[C@@H](C(=O)N[C@@H]([C@H]2O[C@H](SC)[C@H](O)[C@@H](O)[C@H]2O)[C@H](C)Cl)N(C)C1 [Clindamycin]",
    "target_system": "Pasteurella multocida",
    "minimum inhibitory concentration": "> 16 µg/mL"
  },
  {
    "molecule": "C=C[C@]1(C)C[C@@H](OC(=O)CSCCN(CC)CC)[C@]2(C)[C@H](C)CC[C@]3(CCC(=O)[C@H]32)[C@@H](C)[C@@H]1O [Tiamulin]",
    "target_system": "Pasteurella multocida",
    "minimum inhibitory concentration": "32 µg/mL"
  },
  {
    "molecule": "CO/N=C(\\C(=O)N[C@@H]1C(=O)N2C(C(=O)O)=C(CSC(=O)c3ccco3)CS[C@H]12)c1csc(N)n1 [Ceftiofur]",
    "target_system": "Pasteurella multocida",
    "minimum inhibitory concentration": "≤ 0.25 µg/mL"
  }
]

###

system: Pasteurella multocida; experiment: minimum inhibitory concentration (MIC); settings: isolate (source animal id): 121

[
  {
    "compound": "COc1cc(NS(=O)(=O)c2ccc(N)cc2)nc(OC)n1 [sulfadimethoxine]",
    "minimum inhibitory concentration": "> 256 µg/mL"
  },
  {
    "compound": "CCCN1C[C@H](C)[C@@H](O)[C@](C)(O)[C@@H](CC)OC(=O)[C@H](C)[C@@H](O[C@H]2C[C@@](C)(OC)[C@@H](O)[C@H](C)O2)[C@H](C)[C@@H](O[C@@H]2O[C@H](C)C[C@H](N(C)C)[C@H]2O)[C@](C)(O)C[C@H]1C [Gamithromycin]",
    "minimum inhibitory concentration": "> 8 µg/mL"
  },
  {
    "compound": "C=C[C@]1(C)C[C@@H](OC(=O)CSCCN(CC)CC)[C@]2(C)[C@H](C)CC[C@]3(CCC(=O)[C@H]32)[C@@H](C)[C@@H]1O [Tiamulin]",
    "minimum inhibitory concentration": "32 µg/mL"
  },
  {
    "compound": "CC[C@H]1OC(=O)C[C@@H](O)[C@H](C)[C@@H](O[C@@H]2O[C@H](C)[C@@H](O)[C@H](N(C)C)[C@H]2O)[C@@H](CCN2C[C@H](C)C[C@H](C)C2)C[C@@H](C)C(=O)/C=C/C(C)=C/[C@@H]1CO[C@@H]1O[C@H](C)[C@@H](O)[C@@H](OC)[C@H]1OC [Tilmicosin]",
    "minimum inhibitory concentration": "> 16 µg/mL"
  },
  {
    "compound": "NC[C@@H]1O[C@H](O[C@H]2[C@@H](O)[C@H](O[C@@H]3[C@@H](O)[C@H](N)C[C@H](N)[C@H]3O[C@H]3O[C@H](CN)[C@@H](O)[C@H](O)[C@H]3N)O[C@@H]2CO)[C@H](N)[C@@H](O)[C@@H]1O [Neomycin]",
    "minimum inhibitory concentration": "> 32 µg/mL"
  },
  {
    "compound": "CC1(C)S[C@@H]2[C@H](NC(=O)Cc3ccccc3)C(=O)N2[C@H]1C(=O)O [Penicillin]",
    "minimum inhibitory concentration": "0.25 µg/mL"
  },
  {
    "compound": "CC[C@H]1OC(=O)C[C@@H](O)[C@H](C)[C@@H](O[C@@H]2O[C@H](C)[C@@H](O)[C@H](N(C)C)[C@H]2O)[C@@H](CCN2CCCCC2)C[C@@H](C)C(=O)/C=C/C(C)=C/[C@@H]1CN1CCCCC1 [Tildipirosin]",
    "minimum inhibitory concentration": "> 16 µg/mL"
  },
  {
    "compound": "CNC(C)C1CCC(N)C(OC2C(N)CC(N)C(OC3OCC(C)(O)C(NC)C3O)C2O)O1 (stereo not drawn) [Gentamicin]",
    "minimum inhibitory concentration": "4 µg/mL"
  }
]
